Molecular target: Neuronal acetylcholine receptor
Experiment: In vitro binding affinity to neuronal nAChRs was determined by measuring the displacement of [3H]cytisine in rat brain
Known pKi of a selection of molecules
When answering, recall that pKi equals minus log10 of the concentration in mol/L, and write that number alone.

>>> print(df.to_string())
          structure_string  measured_quantity  reported
0  CCc1cc([C@H]2CCCN2C)on1                pKi      8.12

Requested read-out: pKi. Entry: CN1CCC[C@@H]1c1cc(CO)no1 6.90

I have this molecule here, CCCCc1cc([C@H]2CCCN2C)on1 , and I need its recorded pKi. 7.62

# query: pKi of entry Cc1cc([C@H]2CCCN2)on1 6.48

Name the reported pKi value associated with the molecule CCc1cc([C@H]2CCCN2)on1 6.26

Field request: pKi | item: CCN1CCC[C@@H]1c1cc(C)no1 7.46

Any idea what pKi was measured for Cc1cc([C@@H]2CCCN2)on1 ? 8.13

pKi for CCCCc1cc([C@H]2CCCN2)on1 ? 5.30

Requested field: pKi. Item: Cc1cc([C@@H]2CCCN2)sn1 6.64

Using the record for Cc1cc([C@H]2CCCN2)sn1 , report its pKi. 7.29

Given the entry CCCc1cc([C@H]2CCCN2C)on1 , report its measured pKi. 7.85

Need pKi of CN1CCC[C@@H]1c1cc(C(F)(F)F)no1 , thanks. 8.21

Data request, read-out pKi, for CN1CCC[C@@H]1c1cc(Cc2ccccc2)no1 8.13

Record request: pKi value, item COCc1cc([C@H]2CCCN2C)on1 7.66

* * *

Target: Neuronal acetylcholine receptor
Experiment: In vitro binding affinity to neuronal nAChRs was determined by measuring the displacement of [3H]cytisine in rat brain
Measured quantity: Ki (nM)
Write the number in nM without appending the unit.

Check out these entries, answers already filled in.
                  structure_string  unit_annotation  reported
0          CCc1cc([C@@H]2CCCN2)on1               nM      11.7
1           Cc1cc([C@H]2CCCN2C)no1               nM      1330
2  CN1CCC[C@@H]1c1cc(-c2ccccc2)no1               nM       788

Data request, read-out Ki, for CCOC(=O)c1cc([C@H]2CCCN2C)on1 890
